Target: CYP2C8 (Homo sapiens, UniProt P10632)
Construct: each reaction was performed with 0.5 mg/mL pooled human liver microsomes; tissue Corning Gentest BD UltraPool HLM 150; host or cells: pooled human liver microsomes
Sequence (P10632 1-490): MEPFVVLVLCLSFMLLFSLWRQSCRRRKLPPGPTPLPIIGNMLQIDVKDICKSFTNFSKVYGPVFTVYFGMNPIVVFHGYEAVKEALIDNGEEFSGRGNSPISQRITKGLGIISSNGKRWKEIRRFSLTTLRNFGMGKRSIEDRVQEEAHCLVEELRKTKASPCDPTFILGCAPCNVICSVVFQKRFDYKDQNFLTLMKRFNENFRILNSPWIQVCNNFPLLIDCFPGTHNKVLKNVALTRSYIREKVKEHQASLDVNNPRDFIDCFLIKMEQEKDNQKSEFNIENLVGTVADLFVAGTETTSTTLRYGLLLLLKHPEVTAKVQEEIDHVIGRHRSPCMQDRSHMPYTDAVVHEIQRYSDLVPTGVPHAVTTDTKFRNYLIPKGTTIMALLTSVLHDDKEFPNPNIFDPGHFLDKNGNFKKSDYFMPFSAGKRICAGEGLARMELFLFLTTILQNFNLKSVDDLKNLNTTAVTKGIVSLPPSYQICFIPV
Experiment: CYP inhibition, cocktail of probe substrates in pooled human liver microsomes: paclitaxel hydroxylation
Assay type: in vitro ADME
Details: pooled HLMs, substrate 10 μM, 15 min preincubation with NADPH, read-out: IC50 With preincubation with NADPH
PROPERTY NAME: IC50

For the compound O=c1ccc2c(ccc3ccoc32)o1 , give its measured IC50 value. > 100 µM

---

Biological target: CYP2D6 (Homo sapiens)
Construct: each reaction was performed with 0.5 mg/mL pooled human liver microsomes; tissue Corning Gentest BD UltraPool HLM 150; host or cells: pooled human liver microsomes
Sequence (P10635 whole entry): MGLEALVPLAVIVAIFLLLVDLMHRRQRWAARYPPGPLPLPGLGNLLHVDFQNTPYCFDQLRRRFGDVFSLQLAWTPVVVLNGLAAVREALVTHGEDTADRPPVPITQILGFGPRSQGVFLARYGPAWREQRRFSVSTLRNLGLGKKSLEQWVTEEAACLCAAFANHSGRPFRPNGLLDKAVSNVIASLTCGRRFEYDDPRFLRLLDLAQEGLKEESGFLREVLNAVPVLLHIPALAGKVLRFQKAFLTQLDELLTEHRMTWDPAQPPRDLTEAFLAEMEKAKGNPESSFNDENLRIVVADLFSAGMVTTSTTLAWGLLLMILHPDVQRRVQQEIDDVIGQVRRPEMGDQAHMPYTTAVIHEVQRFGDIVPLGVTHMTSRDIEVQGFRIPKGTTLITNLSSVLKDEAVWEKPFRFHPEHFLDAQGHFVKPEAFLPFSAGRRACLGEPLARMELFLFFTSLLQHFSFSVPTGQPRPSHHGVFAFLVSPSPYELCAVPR
Experiment: CYP inhibition, cocktail of probe substrates in pooled human liver microsomes: dextromethorphan O-demethylation
Type: in vitro ADME
Conditions: pooled HLMs, dextromethorphan O-deethylation, substrate 5 μM, without preincubation; read-out: IC50 Without preincubation
PROPERTY NAME: pIC50
# reply with the number alone; pIC50 is -log10 of concentration in mol/L

Please indicate recorded pIC50 of O=c1ccc2c(ccc3ccoc32)o1 measured with CYP2D6 (Homo sapiens). 4.74

---

Target: CYP2C8 (Homo sapiens, UniProt P10632)
Construct: each reaction was performed with 0.5 mg/mL pooled human liver microsomes; tissue Corning Gentest BD UltraPool HLM 150; host or cells: pooled human liver microsomes
Sequence (P10632 1-490): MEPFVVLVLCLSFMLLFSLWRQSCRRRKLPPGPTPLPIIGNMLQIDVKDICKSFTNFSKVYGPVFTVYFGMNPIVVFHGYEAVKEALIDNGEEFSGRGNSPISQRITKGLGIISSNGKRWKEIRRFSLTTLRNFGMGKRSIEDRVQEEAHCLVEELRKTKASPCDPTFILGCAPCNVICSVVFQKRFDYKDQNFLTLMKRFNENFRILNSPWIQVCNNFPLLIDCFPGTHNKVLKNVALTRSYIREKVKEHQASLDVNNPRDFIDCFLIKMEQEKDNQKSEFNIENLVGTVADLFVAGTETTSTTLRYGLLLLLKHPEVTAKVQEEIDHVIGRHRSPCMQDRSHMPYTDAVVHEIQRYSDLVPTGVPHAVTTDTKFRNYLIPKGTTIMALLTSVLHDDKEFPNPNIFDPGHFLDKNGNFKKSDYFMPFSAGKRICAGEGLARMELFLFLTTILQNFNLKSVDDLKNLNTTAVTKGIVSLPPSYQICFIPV
Experiment: CYP inhibition, cocktail of probe substrates in pooled human liver microsomes: paclitaxel hydroxylation
Type: in vitro ADME
Details: pooled HLMs, substrate 10 μM, 15 min preincubation without NADPH, read-out: IC50 With preincubation Without NADPH
pIC50: −log10 of the molar value.
PROPERTY NAME: pIC50

For the compound O=c1ccc2c(ccc3ccoc32)o1 [Bakuchicin] , give its measured pIC50 value. < 4.00
